tested on: NCI-H1651; experiment: relative viability (nuclei count vs DMSO), 5 days (fraction); higher = more cells survive; details: first compound 6.325 µM
Measure: relative viability

*Q* Please report the measured relative viability for COCC1(CO)C(=O)C2CCN1CC2 (stereo unspecified) [PRIMA-1MET] + CS(=O)(=O)CCNCc1ccc(-c2ccc3ncnc(Nc4ccc(OCc5cccc(F)c5)c(Cl)c4)c3c2)o1 [Lapatinib] (partner 2 µM)
*A* 0.839

*Q* Please report the measured relative viability for COCC1(CO)C(=O)C2CCN1CC2 (stereo unspecified) [PRIMA-1MET] + CS(=O)(=O)N1CCN(Cc2cc3nc(-c4cccc5[nH]ncc45)nc(N4CCOCC4)c3s2)CC1 [Pictilisib] (partner 1 µM)
*A* 0.596

*Q* Please report the measured relative viability for COCC1(CO)C(=O)C2CCN1CC2 (stereo unspecified) [PRIMA-1MET] + Cc1nc(Nc2ncc(C(=O)Nc3c(C)cccc3Cl)s2)cc(N2CCN(CCO)CC2)n1 [Dasatinib] (partner 0.075 µM)
*A* 0.415

*Q* Please report the measured relative viability for COCC1(CO)C(=O)C2CCN1CC2 (stereo unspecified) [PRIMA-1MET] + COc1cccc2cc(-c3nc([C@H]4CC[C@H](C(=O)O)CC4)n4ncnc(N)c34)[nH]c12 [OSI-027] (partner 0.5 µM)
*A* 0.669

*Q* Please report the measured relative viability for COCC1(CO)C(=O)C2CCN1CC2 (stereo unspecified) [PRIMA-1MET] + O=C(c1cc(Cc2n[nH]c(=O)c3ccccc23)ccc1F)N1CCN(C(=O)C2CC2)CC1 [Olaparib] (partner 8 µM)
*A* 0.202

*Q* Please report the measured relative viability for COCC1(CO)C(=O)C2CCN1CC2 (stereo unspecified) [PRIMA-1MET] + C[C@@H](Oc1cc(-c2cnn(C3CCNCC3)c2)cnc1N)c1c(Cl)ccc(F)c1Cl [Crizotinib] (partner 1 µM)
*A* 0.955

Reference source: the supplement of paper PMC10307832
